As shown below, each of these binders has a reported Kd value.
# Target Or System: ORF57 8-120 (Herpesvirus saimiri, UniProt P13199 8-120)
# Sequence (P13199 8-120): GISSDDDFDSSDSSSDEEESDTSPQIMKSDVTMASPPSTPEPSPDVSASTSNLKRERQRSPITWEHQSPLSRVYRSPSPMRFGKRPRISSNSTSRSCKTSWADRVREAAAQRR
# Run Description: intrinsic Trp fluorescence titration; Fluorescence: 20 mM phosphate pH 6.2, 50 mM NaCl, 50 mM L-Arg+L-Glu, 5 mM EDTA, 1 mM TCEP (temperature not stated); NMR: 20 mM phosphate pH 6.2, 50 mM NaCl, 50
# Assay Conditions: protein: recombinant
Just the number please, in µM, no unit attached.

[[record]]
binder = "CAGUCGCGAAGAGG (ssRNA) [14merS]"
property_measured = "Kd"
scale_unit = "µM"
data_value = 7.57


Identify the reported Kd for the following entry. CAGUCGC (ssRNA) [7merN]
38.8
